Where these numbers come from: the supplement of paper PMC10065799

system: c-Src; assay: phosphorylation enrichment, bacterial display (enrichment ratio); higher = better substrate or ligand; peptides without Tyr show the background;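 also: 11-residue human phosphosite peptides and single-mutation variants displayed on the E. coli surface, counted by deep sequencing, each peptide's frequency after selection divided by its frequency in the unselected input library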;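 also: frequency after pTyr selection over input frequency; kinase dosed for 20-30% of maximal phosphorylation in three min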
# phosphorylation enrichment listing for each entry below
measured_metric: phosphorylation enrichment

• VVLVSYVPSSQ [SH2B1_Y624] = 0.336
• IHFAIYFLKYS [ARMC9_Y107_L108F] = 0.585
• ATDLAYFLVRK [ASL_Y375_YF] = 0.728
• LEAVSYSSPYA [RNLS_Y190_R193P] = 1.12
• KNNDGYIDYAE [MCFD2_Y135] = 0.465
• GAAMLYYPSVS [GPR143_Y177] = 1.11
• PQAVTYAKVKH [LILRB4_Y360] = 0.708
• YDGKDYIALNE [HLA-A_Y147] = 0.48
• GKVADYIPQLP [GLS_Y249_A254P] = 0.484
• RPGSGYTNIMQ [PKLR_Y564_R569Q] = 0.597
• FFVVEYRDQKP [MUC17_Y4332_YF] = 0.566
• YSMGCYEFSLG [HMGCL_Y198_I200F] = 2.37
• LFSINYLHFGE [KDM4C_Y201_YF] = 0.528
• CEAVEYLESKQ [BTK_Y511_M509V] = 0.52
